Would you kindly list UBP retention (%) for each of these compounds?
# System: semi-synthetic organism (SSO) (strain YZ3)
# procedure.summary: Replication and UBP retention in vivo in the semi-synthetic organism (streptavidin biotin shift, PAGE), Example 1
# Format: cell-based, Escherichia coli
# condition.info: context 3 (CXC); dTPT3TP 10 μM; dNaMTP analog 25 μM
Answer in %, number only, no unit symbol.

Task: Look at this compound and give its reported UBP retention (%). COc1cc(C)ccc1C1CC(O)C(COP(=O)(O)OP(=O)(O)OP(=O)(O)O)O1 (stereo not shown)
Output: 22

Task: Look at this compound and give its reported UBP retention (%). COc1cc(C#N)ccc1C1CC(O)C(COP(=O)(O)OP(=O)(O)OP(=O)(O)O)O1 (stereo not shown)
Output: 35

Task: Look at this compound and give its reported UBP retention (%). COc1cc(Cl)ccc1C1CC(O)C(COP(=O)(O)OP(=O)(O)OP(=O)(O)O)O1 (stereo not shown)
Output: 14

Task: Look at this compound and give its reported UBP retention (%). COc1cc(C)c(F)cc1C1CC(O)C(COP(=O)(O)OP(=O)(O)OP(=O)(O)O)O1 (stereo not shown)
Output: 27
